Taken from paper PMC6683251.

- Assay Text: Urinary excretion of flavanol metabolites (0-24 h) after a single serving of soluble cocoa product (HPLC-ESI-QToF-MS)
- Assay type: in vivo, human
- Run Parameters: after CC-PP (68.25 mg flavanols), mean ± SD, n = 13
The reader will find reported Excreted in urine, 4–8 h values listed item by item below.
Recorded Metric: Excreted in urine, 4–8 h (µmol)

Molecule	Endpoint Result
O=C(O)CCc1ccc(O)cc1 [Hydroxyphenylpropionic acid]	0.356
O=C1CCC(Cc2ccc(O)c(O)c2)O1 (centres unmarked)	0.628
COc1cc([C@H]2Oc3cc(O)cc(OS(=O)(=O)O)c3C[C@H]2O)ccc1O (single isomer, unassigned) [Epicatechin-methoxy-sulfate (isomer 1), Epicatechin-methoxy-sulfate]	3.277
O=C(O)c1ccc(O)c(O)c1 [Protocatechuic acid, 3,4-Dihydroxybenzoic acid]	0.113
O=C1CCC(Cc2ccc(O)c(OC3OC(C(=O)O)C(O)C(O)C3O)c2)O1 (centres unmarked) [HPVL-3′-glucuronide]	1.802
O=C1CCC(Cc2cccc(O)c2)O1 (centres unmarked) [HPVL, 5-(3′-Hydroxyphenyl)-γ-valerolactone]	0.104
COc1cc(CC(=O)O)ccc1O [3-Methoxy-4-hydroxyphenylacetic acid]	0.124

---

Entries annotated with measured Excreted in urine, 0–4 h
- Assay Text: Urinary excretion of flavanol metabolites (0-24 h) after a single serving of soluble cocoa product (HPLC-ESI-QToF-MS)
- Type: in vivo, human
- Run Parameters: after CC (19.80 mg flavanols), mean ± SD, n = 13
Recorded Metric: Excreted in urine, 0–4 h (µmol)

Molecule	Recorded Metric	Output Unit	Endpoint Result
O=C(O)c1ccc(O)c(O)c1 [Protocatechuic acid, 3,4-Dihydroxybenzoic acid]	Excreted in urine, 0–4 h	µmol	0.227
O=S(=O)(O)Oc1cc([C@H]2Oc3cc(O)cc(O)c3C[C@H]2O)ccc1O [Epicatechin-3′-sulfate]	Excreted in urine, 0–4 h	µmol	1.323
COc1cc([C@H]2Oc3cc(O)cc(OS(=O)(=O)O)c3C[C@H]2O)ccc1O (single isomer, unassigned) [Epicatechin-methoxy-sulfate (isomer 1), Epicatechin-methoxy-sulfate]	Excreted in urine, 0–4 h	µmol	2.717
O=C(O)Cc1cccc(O)c1 [Hydroxyphenylacetic acid, 3-Hydroxyphenylacetic acid]	Excreted in urine, 0–4 h	µmol	0.408
COc1ccc([C@H]2Oc3cc(O)cc(OS(=O)(=O)O)c3C[C@H]2O)cc1O (single isomer, unassigned) [Epicatechin-methoxy-sulfate (isomer 3), Epicatechin-methoxy-sulfate]	Excreted in urine, 0–4 h	µmol	0.473

---

- Assay Text: Urinary excretion of flavanol metabolites (0-24 h) after a single serving of soluble cocoa product (HPLC-ESI-QToF-MS)
- Format: in vivo, human
- Run Parameters: after CC (19.80 mg flavanols), mean ± SD, n = 13
Recorded Metric: Excreted in urine, 4–8 h (µmol)

Compound	Recorded Metric	Endpoint Result
O=C1CCC(Cc2ccc(O)c(O)c2)O1 (stereo not drawn)	Excreted in urine, 4–8 h	0.146
COc1cc([C@H]2Oc3cc(O)cc(OS(=O)(=O)O)c3C[C@H]2O)ccc1O (single isomer, unassigned) [Epicatechin-methoxy-sulfate (isomer 1), Epicatechin-methoxy-sulfate]	Excreted in urine, 4–8 h	1.300
O=C(O)CCc1ccc(O)c(O)c1 [3,4-Dihydroxyphenylpropionic acid]	Excreted in urine, 4–8 h	0.243
O=C(O)Cc1cccc(O)c1 [Hydroxyphenylacetic acid, 3-Hydroxyphenylacetic acid]	Excreted in urine, 4–8 h	0.605
COc1ccc(/C=C/C(=O)O)cc1O	Excreted in urine, 4–8 h	0.096
O=C(O)CCc1ccc(O)cc1 [Hydroxyphenylpropionic acid]	Excreted in urine, 4–8 h	0.259
O=C(O)Cc1ccc(O)c(O)c1 [3,4-Dihydroxyphenylacetic acid]	Excreted in urine, 4–8 h	0.556
O=S(=O)(O)Oc1cc([C@H]2Oc3cc(O)cc(O)c3C[C@H]2O)ccc1O [Epicatechin-3′-sulfate]	Excreted in urine, 4–8 h	1.018
COc1ccc([C@H]2Oc3cc(O)cc(OS(=O)(=O)O)c3C[C@H]2O)cc1O (single isomer, unassigned) [Epicatechin-methoxy-sulfate (isomer 3), Epicatechin-methoxy-sulfate]	Excreted in urine, 4–8 h	0.285
O=C1CCC(Cc2cccc(OS(=O)(=O)O)c2)O1 (stereo not drawn) [PVL-3′-sulfate, 5-Phenyl-γ-valerolactone-3′-sulfate]	Excreted in urine, 4–8 h	0.860
O=C1CCC(Cc2cccc(OC3OC(C(=O)O)C(O)C(O)C3O)c2)O1 (stereo not drawn) [PVL-3′glucuronide, 5-Phenyl-γ-valerolactone-3′-glucuronide]	Excreted in urine, 4–8 h	0.233
O=C1CCC(Cc2ccc(O)c(OC3OC(C(=O)O)C(O)C(O)C3O)c2)O1 (stereo not drawn) [HPVL-3′-glucuronide]	Excreted in urine, 4–8 h	0.497
O=C(O)c1ccc(O)c(O)c1 [Protocatechuic acid, 3,4-Dihydroxybenzoic acid]	Excreted in urine, 4–8 h	0.373
